assay details: HepG2 cytotoxicity, primary screen, cytotoxicity control for P. falciparum antimalarial project, cell-based, ATP luminescence (AID 2303);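 further: 0% = DMSO wells and 100% = digitonin-killed cells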
test context: HepG2 viability, 24-48 h, at 10 µM
Calls of active or inactive are those of the source.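 How the source made its calls: active means inhibition above 50%; inactive means the rest.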
Outcome field: choose from 1 = active, 0 = inactive

Known results for compounds:
Cc1[nH]c2ccc(O)cc2c1C1CCN(CC2CCC(NC(=O)/C=C/c3ccc(Cl)c(Cl)c3)CC2)CC1 (configuration not stated)    0
C[C@@H]1C[C@@H]([C@H](O)CC2CC(=O)NC(=O)C2)C(=O)[C@@H](C)C1    0
CC(C)CNCc1cccc(-c2cccc(CN(C(=O)NC3CCCCC3)C3CCN(Cc4ccccc4)CC3)c2)c1    0

Short answer needed: outcome of this test for `C=Cc1cc(OC)c2c(c1)c(=O)oc1c2cc(OC)c2c(O)ccc([C@H]3O[C@H]([C@@H](C)O)[C@H](O)[C@H]3O)c21` ? 0

Hello, I am checking results. What call was entered for `Cc1ccc(C)c(N2CCN(Cc3ccccc3O)CC2)c1` ? 0

Which outcome did this test record for the compound `CNC(=O)c1ccc2[nH]cc(C3CCN(CC4CCN(C(=O)/C=C/c5ccc(Cl)c(Cl)c5)CC4)CC3)c2c1` ? 0

###

Measured activity remaining values are reported for all entries that follow.
Tested on: Aerobactin synthetase IucA (Klebsiella pneumoniae hvKP1)
assay details: Biochemical IucA enzyme inhibition primary screen of the Spectrum library (AID 1346200);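 further: 100% = wells without compound and 0% = wells lacking enzyme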
test context: malachite green pyrophosphate, A620, at 8 µM, stronger effect = lower value
The reply should be a number in %, with the unit left off.

# compound COC(=O)C(O)c1ccccc1 (stereo not drawn) ; its activity remaining = 108

Noted for `C[C@H]1C[C@@H](O)[C@]2(O)[C@@]13CC(=O)OC[C@@]2(C)[C@](C)(O)C(=O)C3` : its activity remaining reads 127

Recorded result, `CC12CC3CC(C)(C1)CC(N)(C3)C2` , activity remaining: 108

Input `COc1cc(C(=O)NCc2ccc(OCCN(C)C)cc2)cc(OC)c1OC` . Output activity remaining: 114

// `OCCOCCN1CCN(C2=Nc3ccccc3Sc3ccccc32)CC1` : activity remaining value = 105

###

Recorded inhibition for the following compounds
assay details: growth inhibition of BT084 medulloblastoma cells, cell-based, ICGC_MB145, cisplatin and BGB IC40 combos (AID 1671461);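 further: cells exposed to drugs for 96 hours; 0% = vehicle DMSO and 100% = high DMSO full killing control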
test context: drug combinations, cisplatin combination, at 5 µM, stronger effect = higher value
Value expressed in %; do not type the unit.

Solved cases (5 shown):
CCC1(c2ccccc2)C(=O)NC(=O)NC1=O    0.177
Cc1c2ccncc2c(C)c2c1[nH]c1ccccc12    49.9
Cn1c(CCCC(=O)O)nc2cc(N(CCCl)CCCl)ccc21    -29.8
O=c1[nH]c(=O)n(C2OC(CO)C(O)C2O)cc1F (stereo unspecified)    -1.49
O=P(O)(NCCCl)NCCCl    -12.8

Attention now turns to another entry.
Given item `Cn1c(COP(=O)(NCCBr)NCCBr)cnc1[N+](=O)[O-]` , the value recorded as its inhibition is -11.7

###

assay details: differential killing of epithelial or mesenchymal cells, primary screen, imaging, PC-3E GFP, TEM4-18 mCherry, co-culture (AID 1345086);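 further: normalised mesenchymal count divided by normalised epithelial count so high means epithelial killing; cells exposed to compound for 72 h before imaging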
test context: imaging cell counts, at 1 µM, actives lie on both sides
Binning rule for recorded red/green cell ratio (normalised): low (below 0.9), middle (0.9 to below 1), high (1 or more)

Examples from the recorded data:
O=c1[nH]c(=O)n(Cl)c(=O)n1Cl    high
Cc1ncc(CNC(=O)N(CCCl)N=O)c(N)n1    middle
COc1ccc2c(c1OC)C(=O)O[C@@H]2[C@H]1c2cc3c(cc2CCN1C)OCO3    high
CN1C(=O)CCS(=O)(=O)C1c1ccc(Cl)cc1 (centres undefined)    high
CC(CCc1ccccc1)NC(C)C(O)c1ccc(O)cc1 (centres undefined)    high
NCCc1ccc(O)cc1    low
Nc1nc(N)nc(NC2CC2)n1    middle
C[C@]12CCC3C(CC[C@]4(O)C[C@@H](O)CC[C@]34C=O)[C@@]1(O)CCC2C1=CC(=O)OC1 (some centres undefined)    low
Nc1ncn[nH]1    high
COc1ccc(C[C@H]2NC[C@H](O)[C@H]2OC(C)=O)cc1    low

Switching to the query record.
Assign a category based on measured red/green cell ratio (normalised) for C[C@@H]1O[C@@H](O[C@H]2C[C@@H](O)[C@]3(CO)C4C(CC[C@]3(O)C2)[C@@]2(O)CC[C@H](C3=CC(=O)OC3)[C@@]2(C)C[C@H]4O)[C@H](O)[C@H](O)[C@H]1O (some centres undefined) and give only the class name. low

###

assay details: hESC survival regulators, cell-based (AID 493140);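 further: cells exposed to compounds for four days before counting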
test context: human embryonic stem cell survival screen; stronger effect = higher value
Calls of active or inactive are those of the source. No rule for the calls is given here.
attribute measured: survival

Field: example entries. Status: answers known.
C[C@@H]1O[C@@H](O[C@H]2C[C@@H](O)[C@]3(CO)[C@H]4[C@H](O)C[C@]5(C)[C@@H](C6=CC(=O)OC6)CC[C@]5(O)[C@@H]4CC[C@]3(O)C2)[C@H](O)[C@H](O)[C@H]1O    1.08 (inactive)
COc1ccc2[nH]c3c(c2c1)CCN=C3C    10.2 (inactive)
CN1C[C@H](CO)C=C2c3cccc4[nH]cc(c34)C[C@H]21    7.67 (inactive)

Continue with the next compound.
For record CC(Cc1ccccc1)NCCC(c1ccccc1)c1ccccc1 (stereo not drawn) the listed survival is 2.25 (inactive)

###

The compounds listed here are annotated with their activity remaining.
Test system: Aerobactin synthetase IucA (Klebsiella pneumoniae hvKP1)
assay details: Biochemical IucA enzyme inhibition primary screen of the Spectrum library (AID 1346200);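 further: 100% = wells without compound and 0% = wells lacking enzyme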
test context: malachite green pyrophosphate, A620, at 8 µM, stronger effect = lower value
Entry rule: numbers only, all in %.

Example entries begin here.
O=c1ccc2cc(O[C@@H]3O[C@H](CO)[C@@H](O)[C@H](O)[C@H]3O)c(O)cc2o1    95.9
Oc1c(I)cc(I)c2cccnc12    102
Cn1cnc2c1c(=O)[nH]c(=O)n2C    126
O=C(O)c1cc(O)c(O)c(O)c1    117
NS(=O)(=O)c1cc(C(=O)O)c(NCc2ccco2)cc1Cl    105

Turning now to a further record.
The compound `NC(=O)N1c2ccccc2C=Cc2ccccc21` , tested on Aerobactin synthetase IucA (Klebsiella pneumoniae hvKP1), showed activity remaining of 114

###

assay details: antimalarial activity against Dd2 strain (AID 2302);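 further: 0% = DMSO untreated growth and 100% = chloroquine plus artemisinin killed control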
test context: P. falciparum Dd2 in RBCs, LDH growth readout, 72 h; at 2 µM; stronger effect = higher value
attribute measured: growth inhibition (%)
Just the number please, in %, no unit attached.

As a guide, the following entries are already answered.
O=C(NC1CCC(CN2CCC(c3c[nH]c4ccccc34)CC2)CC1)[C@H]1Cc2ccccc2CN1 (stereo not given in full)    35
O=C(/C=C/c1ccc(Cl)c(Cl)c1)NC1CCC(N2CCC(c3c[nH]c4ccccc34)CC2)CC1 (stereo not given)    69
CC[C@H]1CN2CC[C@H]1C[C@H]2[C@H](O)c1cc(N2CCCC(C(=O)N(CC)CC)C2)nc2ccc(OC)cc12 (stereo not given in full)    99
CC[C@H]1CN2CC[C@@H]1C[C@H]2[C@H](O)c1cc(N2CCC(C(N)=O)CC2)nc2ccc(OC)cc12    9
CC(Cc1ccc(NC(=O)CCNCc2ccccc2)cc1)NCCc1cccc(Cl)c1 (stereo not given)    100
CN(C)CCC(=O)c1ccccc1    5
CN1CC=C(c2c[nH]c3ccc(Oc4ccccc4)cc23)CC1    98
COC(=O)c1ccc(CC(C)NCC(O)c2cccc(SC(F)(F)F)c2)cc1 (stereo not given)    72

Form field growth inhibition, entry CCOC(=O)c1ccc(CC(C)NCC(O)c2cccc(C(F)(F)F)c2)cc1 (stereo not given) : 98

The compound COc1cccc(C=CC(=O)NC2CCC(CN3CCC(c4c[nH]c5ccccc45)CC3)CC2)c1OC (stereo not given) showed growth inhibition equal to 40

###

System: Aerobactin synthetase IucA (Klebsiella pneumoniae, hypervirulent)
assay details: IucA enzyme inhibition, biochemical, LOPAC library, absorbance readout (AID 1346212);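 further: 100% = no compound wells and 0% = no enzyme wells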
test context: IucA enzyme assay, absorbance (OD) readout; stronger effect = lower value; concentration not given here
Some molecules, each annotated with its measured remaining activity.
Numbers only; they are read as %.

Sample records with remaining activity:
CC(C)(C(=O)O)c1ccc(C(O)CCCN2CCC(C(O)(c3ccccc3)c3ccccc3)CC2)cc1 (stereo not given)    107
CC(=O)[C@H]1CC[C@H]2[C@@H]3CC[C@H]4C[C@H](O)CC[C@]4(C)[C@H]3C(=O)C[C@]12C    112
Oc1ccc(C2CNCc3sccc32)cc1O (stereo not given)    99.3
COc1cc(=O)n(C)c2c(OCC(O)C(C)(C)O)cccc12 (stereo not given)    108

Query molecule follows.
# remaining activity (molecule: `Nc1ccc(-c2ccc3ccccc3n2)cc1` ) is 107
